- Tested Target: Glutamate NMDA receptor
- Test Description: Concentration required to inhibit 50% of the specific binding of [3H]glycine to NMDA receptor prepared from rat cerebral cortex and hippocampus
Each record here notes measured IC50.
Enter your answer as a number in µM; do not include the unit.

Observe how each entry below is paired with its result.
O=C(O)[C@H]1C[C@H](C(=O)O)Nc2cc(Cl)cc(Cl)c21: 20
O=C(O)C1CCc2c(Cl)cc(Cl)cc2N1 (stereo not drawn): 6.39
O=C1CC(C(=O)O)Nc2cc(I)cc(Cl)c21 (stereo not drawn): 3.84
Cc1noc(C[C@H]2C[C@H](C(=O)O)Nc3cc(Cl)cc(Cl)c32)n1: 2.53
O=C(OCc1ccccc1)[C@H]1C[C@H](C(=O)O)Nc2cc(Cl)cc(Cl)c21: 1.05

Problem: What value of IC50 has been reported for the following compound? COC(=O)[C@H]1C[C@H](C(=O)O)Nc2cc(Cl)cc(Cl)c21
Result: 2.47

Problem: What value of IC50 has been reported for the following compound? Cc1cc(C)c2c(c1)NC(C(=O)O)CC2=O (stereo not drawn)
Result: 1.86

Problem: What value of IC50 has been reported for the following compound? O=C(O)[C@@H]1C[C@H](C(=O)O)c2c(Cl)cc(Cl)cc2N1
Result: 31.4

Problem: What value of IC50 has been reported for the following compound? O=C1CC(C(=O)O)Nc2cc(Cl)cc(Cl)c21 (stereo not drawn)
Result: 2.31

Problem: What value of IC50 has been reported for the following compound? COC(=O)[C@H]1C[C@H](C(=O)O)Nc2cc(Cl)cc(I)c21
Result: 3.09

---

- Tested Target: Glutamate NMDA receptor
- Test Description: Concentration required to inhibit 50% of the specific binding of [3H]glycine to NMDA receptor prepared from rat cerebral cortex and hippocampus
Each record here notes measured IC50.
Enter your answer as a number in µM; do not include the unit.

Problem: Give IC50 (Glutamate NMDA receptor) of the following compound: COC(=O)[C@H]1C[C@@H](C(=O)O)Nc2cc(Br)cc(Br)c21
Result: 2.05

Problem: Give IC50 (Glutamate NMDA receptor) of the following compound: COC(=O)[C@H]1C[C@@H](C(=O)O)Nc2cc(Cl)cc(Cl)c21
Result: 1.21

Problem: Give IC50 (Glutamate NMDA receptor) of the following compound: COC(=O)[C@H]1C[C@H](C(=O)O)Nc2cc(Br)cc(Br)c21
Result: 2.89

Problem: Give IC50 (Glutamate NMDA receptor) of the following compound: O=C1CC(C(=O)O)Nc2cc(Cl)cc(I)c21 (centres undefined)
Result: 0.36

Problem: Give IC50 (Glutamate NMDA receptor) of the following compound: O=C1CC(C(=O)O)Nc2cccc(Cl)c21 (centres undefined)
Result: 6.96

Problem: Give IC50 (Glutamate NMDA receptor) of the following compound: Cc1cc(C)c2c(c1)N[C@@H](C(=O)O)[C@@H](C)C2=O
Result: 13.7

Problem: Give IC50 (Glutamate NMDA receptor) of the following compound: COC(=O)[C@H]1C[C@H](C(=O)O)Nc2cccc(Cl)c21
Result: 176

Problem: Give IC50 (Glutamate NMDA receptor) of the following compound: O=C(O)C[C@H]1C[C@@H](C(=O)O)Nc2cc(Cl)cc(Cl)c21
Result: 15

Each recorded value in this set is attributed to ChEMBL document CHEMBL1126052.
